tested on: Influenza A virus; experiment: Antiviral activity against Influenza A virus (A/udorn/307/1972 H3N2) infected in MDCK cells assessed as reduction in viral RNA titer at 4 uM after 36 to 48 hrs by RT-qPCR analysis; assay type: functional, organism-based
Activity calls are given as the source filed them. The rule behind the calls is not given here.
I would appreciate it if you answered using one of these outcomes: T (active), F (inactive)

Answered cases to consult:
(Q) Outcome logged for O=C(N/N=C(/c1ccc2c(c1)CCCC2)C1CCCC1)c1cc2ccccc2cc1O in this assay:
(A) T

(Q) Outcome logged for CN(C)CCC/C(=N\NC(=O)c1cc2ccccc2cc1O)c1ccc2c(c1)CCCC2 in this assay:
(A) F

Others:
(Q) Outcome logged for O=C(N/N=C(/c1ccc2c(c1)CCCC2)C1CCCCC1)c1cc2ccccc2cc1O in this assay:
(A) T

(Q) Outcome logged for O=C(N/N=C(\CCCCl)c1ccc2c(c1)CCCC2)c1cc2ccccc2cc1O in this assay:
(A) F
